Recorded measurements of GLUCOSE, one per entry
Organism: Rattus norvegicus
Experiment: DrugMatrix - Regimen: Daily Repeat
Assay type: toxicity, organism-based, Sprague-Dawley
Design: regimen Daily Repeat, gender Male, age 6-8 weeks
Settings: in vivo, po, 2000 mg/kg, 120 h, tissue Plasma, route oral GAVAGE, dose level High, time 5 day, vehicle .5 % CMC
Endpoint label: GLUCOSE (mg/dL)

>  <Molecule>
NC1CCN(c2nc3c(cc2F)c(=O)c(C(=O)O)cn3-c2ccc(F)cc2F)C1 (stereo unspecified)

>  <Assay value>
162.33

$$$$
>  <Molecule>
CN(C/C=C/C#CC(C)(C)C)Cc1cccc2ccccc12

>  <Assay value>
141

$$$$
>  <Molecule>
O=C1Nc2ccc(Cl)cc2C(c2ccccc2Cl)=NC1O (stereo unspecified)

>  <Assay value>
150.5

$$$$
>  <Molecule>
CN/C(=N/CCSCc1nc[nH]c1C)NC#N

>  <Assay value>
225

$$$$
>  <Molecule>
CC1(C)S[C@@H]2[C@H](NC(=O)[C@H](N)c3ccccc3)C(=O)N2[C@H]1C(=O)O

>  <Assay value>
150.33

$$$$
>  <Molecule>
COc1cc2nc(N3CCN(C(=O)c4ccco4)CC3)nc(N)c2cc1OC

>  <Assay value>
152

$$$$
